# Tested on: human apolipoprotein B mRNA
# ASSAY_INFO: Inhibition of human apolipoprotein B mRNA levels in HepG2 cells, quantitative real-time PCR
# Format: cell-based
# CONDITION_PARAMETERS: HepG2 cells treated with 150 nM of compound; averages from two experiments; quantitative real-time PCR
In the oligonucleotide strings, read from the 5' end, every base follows the letter of its sugar. An asterisk marks phosphorothioate; unmarked linkages are phosphodiester. Other units and linkages are bracketed, terminal groups are in braces. A string of capitals states the bases alone. e = 2'-O-(2-methoxyethyl) (MOE); [5mC] = 5-methylcytosine; d = 2'-deoxy (DNA)
MEASURED_ENDPOINT: % INHIB (inhibition of human apolipoprotein B mRNA levels) (%)
Give just the number in %; leave the unit off.

Q: Query: % INHIB (inhibition of human apolipoprotein B mRNA levels); subject: 301021 (eG*eG*eT*e[5mC]*e[5mC]*dA*dT*d[5mC]*dG*d[5mC]*d[5mC]*dA*dG*d[5mC]*dT*eG*e[5mC]*eG*eG*eT; antisense) [compound 301021]
Ans: 89

Q: What about 281646 (eT*e[5mC]*e[5mC]*e[5mC]*eG*dG*dA*d[5mC]*d[5mC]*d[5mC]*dT*d[5mC]*dA*dA*d[5mC]*eT*e[5mC]*eA*eG*eT; antisense) [compound 281646] ?
Ans: 76

Q: What about 301013 (e[5mC]*e[5mC]*e[5mC]*e[5mC]*eG*d[5mC]*dA*dG*dG*dT*d[5mC]*d[5mC]*d[5mC]*dG*dG*eT*eG*eG*eG*eA; antisense) [compound 301013] ?
Ans: 82

Q: What about 281635 (antisense eA*eT*eA*e[5mC]*eA*d[5mC]*dT*dG*d[5mC]*dA*dA*d[5mC]*dT*dG*dT*eG*eG*e[5mC]*e[5mC]*eT) [compound 281635] ?
Ans: 89

Q: What about 301018 (e[5mC]*eT*e[5mC]*e[5mC]*eT*d[5mC]*dA*dG*d[5mC]*dG*dG*d[5mC]*dA*dG*d[5mC]*eA*eA*e[5mC]*e[5mC]*eG; antisense) [compound 301018] ?
Ans: 45

Q: What about 281593 (eT*eA*e[5mC]*eT*eG*dA*d[5mC]*dA*dG*dG*dA*d[5mC]*dT*dG*dG*e[5mC]*eT*eG*e[5mC]*eT; antisense) [compound 281593] ?
Ans: 93

Q: What about 270992 (antisense e[5mC]*e[5mC]*e[5mC]*eT*eT*d[5mC]*d[5mC]*dT*d[5mC]*dG*dT*d[5mC]*dT*dT*dG*eA*e[5mC]*eG*eG*eT) [compound 270992] ?
Ans: 8

Q: What about 281589 (eT*e[5mC]*eA*eG*e[5mC]*dA*dA*dG*dG*d[5mC]*dT*dT*dT*dG*d[5mC]*e[5mC]*e[5mC]*eT*e[5mC]*eA; antisense) [compound 281589] ?
Ans: 90

Q: What about 281642 (eG*e[5mC]*e[5mC]*eT*e[5mC]*dA*d[5mC]*dT*dA*dG*d[5mC]*dA*dA*dT*dA*eG*eT*eT*e[5mC]*e[5mC]; antisense) [compound 281642] ?
Ans: 59

Q: What about 271038 (eG*eT*e[5mC]*eT*eA*d[5mC]*d[5mC]*dT*d[5mC]*dA*dA*dA*dG*d[5mC]*dG*eT*eG*e[5mC]*eA*eG; antisense) [compound 271038] ?
Ans: 29

Q: What about 301042 (eA*eA*eA*eT*eG*d[5mC]*d[5mC]*dA*dT*d[5mC]*d[5mC]*dT*dT*d[5mC]*dT*eG*eA*eG*eT*eT; antisense) [compound 301042] ?
Ans: 81
